Recorded Erev (bi-ionic potential) by entry
Biological target: TMEM16A (ANO1) (Mus musculus, UniProt Q8BHY3)
Construct: We subcloned the coding region of the cDNA into pEGFP-N3 vector; expressed in transfected cells; host or cells: HEK293 cells
Sequence (Q8BHY3 1-956 isoform Q8BHY3-2): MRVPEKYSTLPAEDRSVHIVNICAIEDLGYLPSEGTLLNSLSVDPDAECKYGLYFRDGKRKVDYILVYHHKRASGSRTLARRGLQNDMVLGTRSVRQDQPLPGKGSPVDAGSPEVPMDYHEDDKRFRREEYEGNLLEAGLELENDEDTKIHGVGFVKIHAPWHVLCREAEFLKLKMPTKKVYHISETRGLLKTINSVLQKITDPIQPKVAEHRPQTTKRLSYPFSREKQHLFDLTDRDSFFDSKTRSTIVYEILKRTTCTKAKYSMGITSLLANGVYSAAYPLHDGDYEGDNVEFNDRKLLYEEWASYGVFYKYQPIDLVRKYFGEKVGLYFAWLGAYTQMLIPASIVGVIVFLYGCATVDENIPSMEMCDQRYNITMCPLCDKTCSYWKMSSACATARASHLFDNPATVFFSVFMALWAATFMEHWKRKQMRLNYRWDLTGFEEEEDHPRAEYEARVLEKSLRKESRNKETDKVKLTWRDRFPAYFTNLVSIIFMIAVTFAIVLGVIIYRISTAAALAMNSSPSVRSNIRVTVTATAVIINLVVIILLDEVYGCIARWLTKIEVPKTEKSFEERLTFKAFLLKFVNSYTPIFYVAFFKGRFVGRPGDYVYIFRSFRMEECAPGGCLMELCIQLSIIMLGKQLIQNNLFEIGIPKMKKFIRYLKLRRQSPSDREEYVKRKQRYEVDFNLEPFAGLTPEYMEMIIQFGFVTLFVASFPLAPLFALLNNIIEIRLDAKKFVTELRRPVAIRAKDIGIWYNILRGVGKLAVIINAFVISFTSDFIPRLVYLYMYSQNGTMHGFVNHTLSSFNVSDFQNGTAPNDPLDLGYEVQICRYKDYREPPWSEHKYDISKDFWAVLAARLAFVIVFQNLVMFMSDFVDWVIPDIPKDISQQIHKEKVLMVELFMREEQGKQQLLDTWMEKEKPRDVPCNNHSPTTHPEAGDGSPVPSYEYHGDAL
Test: Anion permeability of the ANO1 pore, Erev under bi-ionic conditions
Assay type: cell-based
Conditions: current activated by 20 µM Sr^2+; current clamp (I = 0); without correcting for junction potential
Write the value in mV as a bare number.

[Br-].[Na+]: 16.2

Query string: Identify measured Erev (bi-ionic potential) associated with `O=[N+]([O-])[O-].[Na+]`
Result string: 31.3

Query string: Identify measured Erev (bi-ionic potential) associated with `[I-].[Na+]`
Result string: 33.4

Query string: Identify measured Erev (bi-ionic potential) associated with `N#C[S-].[Na+]`
Result string: 59.4

---

Target: TMEM16A (ANO1) (Mus musculus)
Construct: We subcloned the coding region of the cDNA into pEGFP-N3 vector; expressed in transfected cells; host or cells: HEK293 cells
Test: Anion permeability of the ANO1 pore, Erev under bi-ionic conditions
Assay type: cell-based
Details: Ca^2+-activated current; calculated from Erev after junction potential correction
Recorded permeability ratio PX/PCl by entry

Query string: Provide permeability ratio PX/PCl, recorded with TMEM16A (ANO1) (Mus musculus), of `[Br-].[Na+]`
Result string: ~2.1

Query string: Provide permeability ratio PX/PCl, recorded with TMEM16A (ANO1) (Mus musculus), of `N#C[S-].[Na+]`
Result string: ~11

Query string: Provide permeability ratio PX/PCl, recorded with TMEM16A (ANO1) (Mus musculus), of `O=[N+]([O-])[O-].[Na+]`
Result string: ~3.5

Query string: Provide permeability ratio PX/PCl, recorded with TMEM16A (ANO1) (Mus musculus), of `O=C([O-])O.[Na+]`
Result string: ~0.3

Query string: Provide permeability ratio PX/PCl, recorded with TMEM16A (ANO1) (Mus musculus), of `[I-].[Na+]`
Result string: ~4.1

---

Target: TMEM16A (ANO1) (Mus musculus, UniProt Q8BHY3)
Construct: We subcloned the coding region of the cDNA into pEGFP-N3 vector; expressed in transfected cells; host or cells: HEK293 cells
Experiment: NFA inhibition of ANO1 current, intracellular application to inside-out patch
Assay type: cell-based
Details: 140 mM intracellular NaCl; pipette 140 mM Cl^−; read-out: K1/2 of NFA inhibition
reported.property: IC50 (µM)
Write the value in µM as a bare number.

Query string: Identify measured IC50 associated with `O=C(O)c1cccnc1Nc1cccc(C(F)(F)F)c1`
Result string: 17.9

---

Molecular target: TMEM16A (ANO1) (Mus musculus)
Construct: We subcloned the coding region of the cDNA into pEGFP-N3 vector; expressed in transfected cells; host or cells: HEK293 cells
Test: Activation of ANO1 current by divalent cations, excised inside-out patch with fast solution exchange
Assay type: cell-based
Details: +40 mV; fit to Hill equation (eq. 1); normalized to Is induced by 20 µM free Ca^2+; read-out: half-activation [Ca^2+] (K1/2,Ca)
reported.property: pEC50
pEC50 here: minus log base 10 of the concentration, concentration in moles per litre.

Query string: Provide pEC50, recorded with TMEM16A (ANO1) (Mus musculus), of `[Ca+2]`
Result string: 6.33

// provenance: paper PMC3906059
